- Measurement Protocol: Cytotoxicity against human MCF7 cells assessed as reduction in cell viability measured after 24 hrs by MTT assay
- Format: functional, cell-based
- Protocol Conditions: MCF7, 24 h
Readout Label: IC50 (µM)
Value expressed in µM; do not type the unit.

Consider the following illustrative entries.
C=CCn1[se]c2ccccc2c1=O | 25.7
O=C(NC1CCCCC1)c1ccccc1[Se][Se]c1ccccc1C(=O)NC1CCCCC1 | 90
C=CCNC(=O)c1ccccc1[Se][Se]c1ccccc1C(=O)NCC=C | 125
O=c1c2ccccc2[se]n1C1CCCCC1 | 7.31
CC(C)CCn1[se]c2ccccc2c1=O | 29

Query: Which IC50 value belongs to `CCCCn1[se]c2ccccc2c1=O` ?
Reply: 13.8

Query: Reported IC50, compound `Cn1[se]c2ccccc2c1=O` : ____
Reply: 32.7

---

Activity reference
- Measurement Protocol: Antioxidant activity assessed as H2O2 scavenging by measuring remaining dithiothreitol level at 0.1 equivalent after 30 mins by 1H NMR spectroscopy relative to control
- Assay type: functional
Mention the unit after the number when you answer.

# annotated cases, reported Activity shown
O=c1c2ccccc2[se]n1C1CCCCC1 | 55%
O=C(NC1CCCCC1)c1ccccc1[Se][Se]c1ccccc1C(=O)NC1CCCCC1 | 65%
CC(C)CCNC(=O)c1ccccc1[Se][Se]c1ccccc1C(=O)NCCC(C)C | 31%

Query: Item `O=c1c2ccccc2[se]n1-c1ccccc1` has what recorded Activity?
Reply: 58%

Query: Looking for the measured Activity of `CCCCNC(=O)c1ccccc1[Se][Se]c1ccccc1C(=O)NCCCC` , can you help?
Reply: 77%

Query: Returns the measured Activity for the input compound. Input: `Cn1[se]c2ccccc2c1=O`
Reply: 11%

Query: Any idea what Activity was measured for `CC(C)CCn1[se]c2ccccc2c1=O` ?
Reply: 28%

---

Recorded measurements of Activity, one per entry
- Measurement Protocol: Antioxidant activity assessed as H2O2 scavenging by measuring remaining dithiothreitol level at 0.1 equivalent after 5 mins by 1H NMR spectroscopy relative to control
- Assay type: functional
Could you give me the number in %? Just the number is fine.

CCCCn1[se]c2ccccc2c1=O | 59
O=c1c2ccccc2[se]n1-c1ccccc1 | 75
C=CCn1[se]c2ccccc2c1=O | 69

Query: Looking for the measured Activity of `Cn1[se]c2ccccc2c1=O` , can you help?
Reply: 65

Query: Return reported Activity; argument: `O=C(NC1CCCCC1)c1ccccc1[Se][Se]c1ccccc1C(=O)NC1CCCCC1`
Reply: 85

Query: Would you kindly share the measured Activity for `O=c1c2ccccc2[se]n1C1CCCCC1` ?
Reply: 69

Query: Suppose we examine the compound `C=CCNC(=O)c1ccccc1[Se][Se]c1ccccc1C(=O)NCC=C` ; what Activity value has been reported?
Reply: 36

---

Below, each entry is listed with its recorded Activity.
- Measurement Protocol: Antioxidant activity assessed as H2O2 scavenging by measuring remaining dithiothreitol level at 0.1 equivalent after 3 mins by 1H NMR spectroscopy relative to control
- Type: functional
Quick note: give the figure in %, leave out the unit.

Record excerpt, results attached:
C=CCNC(=O)c1ccccc1[Se][Se]c1ccccc1C(=O)NCC=C | 59
O=c1c2ccccc2[se]n1-c1ccccc1 | 84
Cn1[se]c2ccccc2c1=O | 78
O=C(NC1CCCCC1)c1ccccc1[Se][Se]c1ccccc1C(=O)NC1CCCCC1 | 92

Query: Need Activity, item `O=c1c2ccccc2[se]n1C1CCCCC1`
Reply: 75

Query: Would you mind telling me what Activity value was observed for `CCCCn1[se]c2ccccc2c1=O` ?
Reply: 81

Query: Which Activity value belongs to `CC(C)CCNC(=O)c1ccccc1[Se][Se]c1ccccc1C(=O)NCCC(C)C` ?
Reply: 65

Query: Value lookup for Activity; key = `C=CCn1[se]c2ccccc2c1=O`
Reply: 76

Query: Return reported Activity; argument: `CCCCNC(=O)c1ccccc1[Se][Se]c1ccccc1C(=O)NCCCC`
Reply: 93

Query: Recorded Activity for `CC(C)CCn1[se]c2ccccc2c1=O` , please?
Reply: 77

---

Catalogue of pIC50 readings, one per entry.
- Measurement Protocol: Cytotoxicity against human DU145 cells assessed as reduction in cell viability measured after 24 hrs by SRB assay
- Format: functional, cell-based
- Protocol Conditions: DU-145, 24 h
pIC50: −log10 of the molar value.

Look over these answered cases.
CCCCNC(=O)c1ccccc1[Se][Se]c1ccccc1C(=O)NCCCC | < 4.40
O=C(NC1CCCCC1)c1ccccc1[Se][Se]c1ccccc1C(=O)NC1CCCCC1 | < 4.40

Now take the following molecule into account.
Query: Return reported pIC50; argument: `CC(C)CCNC(=O)c1ccccc1[Se][Se]c1ccccc1C(=O)NCCC(C)C`
Reply: < 4.40

---

- Measurement Protocol: Antioxidant activity assessed as H2O2 scavenging by measuring remaining dithiothreitol level at 0.1 equivalent after 30 mins by 1H NMR spectroscopy relative to control
- Type: functional
Readout Label: Activity (%)
Report only the number, with the unit % understood.

Worked cases, Activity given:
C=CCn1[se]c2ccccc2c1=O | 53
C=CCNC(=O)c1ccccc1[Se][Se]c1ccccc1C(=O)NCC=C | 0

Now turn to the next compound.
Query: For the compound `CCCCn1[se]c2ccccc2c1=O` , what Activity is on record?
Reply: 32

---

Recorded measurements of Activity, one per entry
- Measurement Protocol: Antioxidant activity assessed as H2O2 scavenging by measuring remaining dithiothreitol level at 0.1 equivalent after 5 mins by 1H NMR spectroscopy relative to control
- Type: functional
Answer in %, number only, no unit symbol.

Take a look at these entries with their results.
CC(C)CCNC(=O)c1ccccc1[Se][Se]c1ccccc1C(=O)NCCC(C)C | 49
CC(C)CCn1[se]c2ccccc2c1=O | 58

Now consider the entry below.
Query: GET /values?readout=Activity&item= `CCCCNC(=O)c1ccccc1[Se][Se]c1ccccc1C(=O)NCCCC`
Reply: 88
